Assign pIC50 to each entry below.
biological target: PI3K alpha (Homo sapiens, UniProt P42336); construct: His tag (C); Tn5 (Trichoplusia ni) or TiniPro insect cells; assay: Enzymatic PI3K alpha isoform inhibition (lipid kinase activity, Kinase-Glo); settings: enzymatic assay
Sequence (P42336 with tags, fused parts or gaps limits assumed): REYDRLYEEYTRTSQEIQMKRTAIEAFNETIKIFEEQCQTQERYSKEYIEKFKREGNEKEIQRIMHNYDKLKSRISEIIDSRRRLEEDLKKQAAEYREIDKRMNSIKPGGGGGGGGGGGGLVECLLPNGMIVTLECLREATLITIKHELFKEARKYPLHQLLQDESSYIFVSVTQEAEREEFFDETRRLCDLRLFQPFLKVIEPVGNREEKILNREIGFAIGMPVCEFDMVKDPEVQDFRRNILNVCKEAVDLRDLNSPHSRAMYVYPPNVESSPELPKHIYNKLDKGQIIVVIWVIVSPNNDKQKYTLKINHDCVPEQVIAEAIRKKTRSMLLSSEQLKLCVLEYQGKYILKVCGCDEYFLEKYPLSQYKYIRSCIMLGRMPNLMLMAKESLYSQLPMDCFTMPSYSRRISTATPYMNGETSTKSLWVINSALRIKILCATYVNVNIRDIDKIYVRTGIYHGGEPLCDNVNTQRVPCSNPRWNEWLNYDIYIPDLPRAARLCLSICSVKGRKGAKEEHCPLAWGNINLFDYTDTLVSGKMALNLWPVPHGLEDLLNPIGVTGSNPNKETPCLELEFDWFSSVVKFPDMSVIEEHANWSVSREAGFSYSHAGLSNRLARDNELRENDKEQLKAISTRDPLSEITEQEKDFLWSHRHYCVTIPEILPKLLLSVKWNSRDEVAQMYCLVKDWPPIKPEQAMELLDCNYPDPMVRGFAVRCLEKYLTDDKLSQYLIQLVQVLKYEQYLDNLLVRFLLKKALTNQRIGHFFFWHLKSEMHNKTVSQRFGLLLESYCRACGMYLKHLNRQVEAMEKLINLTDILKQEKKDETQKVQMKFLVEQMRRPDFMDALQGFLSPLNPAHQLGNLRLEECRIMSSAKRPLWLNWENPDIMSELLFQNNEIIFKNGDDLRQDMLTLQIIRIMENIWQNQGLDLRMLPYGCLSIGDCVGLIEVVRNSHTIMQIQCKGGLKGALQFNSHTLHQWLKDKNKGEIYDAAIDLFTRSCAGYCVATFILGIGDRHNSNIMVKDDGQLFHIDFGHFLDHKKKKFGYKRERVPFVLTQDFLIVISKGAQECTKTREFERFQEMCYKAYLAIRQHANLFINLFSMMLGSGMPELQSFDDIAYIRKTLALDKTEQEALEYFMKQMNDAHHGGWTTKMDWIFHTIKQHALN
Give bare numbers, as −log10 of the molar value.

smiles notation: COc1ncc(-c2ccnc3ccc(O[C@H]4CCN(C(=O)c5cn(C)cn5)C4)cc23)cc1C#N
pIC50: 6.42

smiles notation: Nc1ncc(-c2ccnc3ccc(O[C@H]4CCN(C(=O)C5CCS(=O)(=O)CC5)C4)cc23)cc1C(F)(F)F
pIC50: 7.52

smiles notation: COc1ncc(-c2ccnc3ccc(O[C@H]4CCN(C(=O)c5ccc(=O)[nH]c5)C4)c(C)c23)cc1C(F)F
pIC50: 7.48

Input: Determine its reported pIC50: `COc1ncc(-c2ccnc3ccc(O[C@H]4CCN(C(=O)C5CCS(=O)(=O)CC5)C4)cc23)cc1Cl`
Output: 7.11

----------
target: PI3K delta (Homo sapiens, UniProt O00329); construct: for the full-length p110-d subunit are generated and fused by overlapping PCR; His tag (C); Tn5 (Trichoplusia ni) or TiniPro insect cells; test: Enzymatic PI3K delta isoform inhibition (lipid kinase activity, Kinase-Glo); details: enzymatic assay
Sequence (O00329 with tags, fused parts or gaps limits assumed): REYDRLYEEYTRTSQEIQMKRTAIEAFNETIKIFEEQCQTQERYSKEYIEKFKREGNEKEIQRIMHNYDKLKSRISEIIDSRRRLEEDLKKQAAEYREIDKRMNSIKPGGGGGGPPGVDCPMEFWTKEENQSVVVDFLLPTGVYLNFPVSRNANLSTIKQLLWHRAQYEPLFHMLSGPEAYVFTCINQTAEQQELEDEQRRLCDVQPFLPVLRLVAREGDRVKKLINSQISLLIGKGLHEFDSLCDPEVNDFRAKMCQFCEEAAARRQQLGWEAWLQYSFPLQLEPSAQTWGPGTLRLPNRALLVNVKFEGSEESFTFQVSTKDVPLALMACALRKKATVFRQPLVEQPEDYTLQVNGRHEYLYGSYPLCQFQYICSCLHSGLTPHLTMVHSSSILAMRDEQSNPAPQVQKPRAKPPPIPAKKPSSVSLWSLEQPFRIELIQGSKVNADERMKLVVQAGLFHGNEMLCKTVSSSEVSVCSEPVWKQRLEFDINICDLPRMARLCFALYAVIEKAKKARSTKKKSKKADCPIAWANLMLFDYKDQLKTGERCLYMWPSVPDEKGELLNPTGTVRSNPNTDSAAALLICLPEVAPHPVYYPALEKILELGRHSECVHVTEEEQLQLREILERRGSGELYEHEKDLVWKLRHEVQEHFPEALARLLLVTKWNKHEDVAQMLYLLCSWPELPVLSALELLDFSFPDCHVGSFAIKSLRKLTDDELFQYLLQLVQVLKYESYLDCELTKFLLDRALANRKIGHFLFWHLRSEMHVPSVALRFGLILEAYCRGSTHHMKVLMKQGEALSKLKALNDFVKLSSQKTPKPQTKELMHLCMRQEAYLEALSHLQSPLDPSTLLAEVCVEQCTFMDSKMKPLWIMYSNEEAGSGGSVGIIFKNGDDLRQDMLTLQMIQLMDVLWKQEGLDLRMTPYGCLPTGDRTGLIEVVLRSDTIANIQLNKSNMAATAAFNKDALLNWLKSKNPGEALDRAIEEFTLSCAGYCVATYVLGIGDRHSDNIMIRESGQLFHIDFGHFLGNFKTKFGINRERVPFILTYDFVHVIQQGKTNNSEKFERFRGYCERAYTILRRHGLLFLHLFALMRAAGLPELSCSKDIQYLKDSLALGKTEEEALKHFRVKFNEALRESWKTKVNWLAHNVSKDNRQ
Output Y for records whose IC50 is lower than 7 nM, N for records at or above 7 nM.

Answered cases to consult:
smiles notation: COc1ncc(-c2ccnc3ccc(O[C@H]4CCN(C(=O)C5CCS(=O)(=O)CC5)C4)cc23)cc1Cl
assigned category: Y

smiles notation: COc1ncc(-c2ccnc3ccc(O[C@H]4CCN(C(=O)C5CCS(=O)(=O)CC5)C4)cc23)cc1F
assigned category: Y

smiles notation: Nc1ncc(-c2ccnc3ccc(O[C@H]4CCN(C(=O)C5CCS(=O)(=O)CC5)C4)cc23)cc1C(F)(F)F
assigned category: N

smiles notation: COc1ncc(-c2ccnc3ccc(O[C@H]4CCN(C(=O)C5CCN(C(C)=O)CC5)C4)cc23)cc1C
assigned category: N

smiles notation: COc1ncc(-c2ccnc3cc(F)c(O[C@H]4CCN(C(=O)C5CCS(=O)(=O)CC5)C4)cc23)cc1C
assigned category: N

Would you kindly look at the next entry?
Input: hey, is IC50 for `COc1ncc(-c2ccnc3ccc(O[C@H]4CCN(C(=O)C5CCS(=O)(=O)CC5)C4)c(C)c23)cc1C(F)F` lower than 7 nM or not?
Output: Y

----------
target: PI3K alpha (Homo sapiens, UniProt P42336); construct: His tag (C); made in house; host or cells: baculovirus; Tn5 (Trichoplusia ni) or TiniPro insect cells; assay: Enzymatic PI3K alpha isoform inhibition (lipid kinase activity, Kinase-Glo); assay type: biochemical; details: enzymatic assay
quantity kind: pIC50
One number for each entry, as −log10 of the molar value.

Check out these entries, answers already filled in.
smiles notation: Cc1cc(-c2ccnc3ccc(O[C@H]4CCN(C(=O)C5CCS(=O)(=O)CC5)C4)cc23)cnc1OC(F)F
subject of test: PI3K alpha (Homo sapiens, UniProt P42336)
pIC50: 5.78
//
smiles notation: COc1ncc(-c2ccnc3ccc(O[C@H]4CCN(C(=O)C5CCOCC5)C4)c(C)c23)cc1C#N
subject of test: PI3K alpha (Homo sapiens, UniProt P42336)
pIC50: 5.84
//
smiles notation: COc1ncc(-c2ccnc3ccc(O[C@H]4CCN(C(=O)c5cn(C)cn5)C4)cc23)cc1C
subject of test: PI3K alpha (Homo sapiens, UniProt P42336)
pIC50: 6.72

List reported pIC50 for each of these compounds:
1. COc1ncc(-c2ccnc3cc(F)c(O[C@H]4CCN(C(=O)C5CCS(=O)(=O)CC5)C4)cc23)cc1C
2. COc1ncc(-c2ccnc3ccc(O[C@H]4CCN(C(=O)C5CCS(=O)(=O)CC5)C4)cc23)cc1C

Output:
1: 5.51; 2: 6.73
